# System: BT-549 breast
# Experiment Notes: NCI tumour cell line growth inhibition, 48 h
Quantity: TGI

C/C(Nc1ccc(Cl)cc1)=C1/CCOC1=O    > 100 µM
C#CCOC(=O)C(=[N+]=[N-])C(=O)CC(C)C    > 10 µM
C=CCN1C(=O)CC(=O)N(NC2=NNC3(C(=O)N2)c2ccccc2-c2ccccc23)C1=S    > 100 µM
CCN(CC)CCNc1ccc([N+](=O)[O-])c2sc3cc(Cl)ccc3c(=O)c12    > 100 µM
S=c1[nH]nc(CCCCCCCCc2n[nH]c(=S)o2)o1    > 100 µM
C#CC#CC#CC#CC#CC#CC#CC#CC[C@@H]1OC[C@@H](COC(=O)O[C@@H](C(=O)O[C@H]2C[C@@]3(O)[C@@H](OC(=O)c4ccccc4)[C@@H]4[C@]5(OC(C)=O)CO[C@@H]5C[C@H](O)[C@@]4(C)C(=O)[C@H](OC(C)=O)C(=C2C)C3(C)C)[C@@H](NC(=O)c2ccccc2)c2ccccc2)O1    > 33.3 µM

Provide each entry's TGI from the list below.
1. O=C(Nc1ccc(C(F)(F)F)cc1[N+](=O)[O-])c1cccnc1
2. Nc1ncc(C2[C@H](CNC(=O)c3cc(Br)c[nH]3)C(CNC(=O)c3cc(Br)c[nH]3)[C@@H]2c2cnc(N)[nH]2)[nH]1 (stereo partly drawn)
3. O=C1C2CC[C@@H]3C(=O)C(Cl)(Cl)[C@@H]3CCC2C1(Cl)Cl (stereo partly drawn)
4. COC(=O)[C@]1(C)CCC[C@]2(C)[C@@H]1CCC13C[C@@H](C=CO1)[C@@H](C)CC32O (stereo partly drawn)
5. COc1cccc(N=NN2CCCC2)c1

1. > 100 µM
2. > 50 µM
3. > 100 µM
4. > 100 µM
5. > 100 µM
